The listing below reports pKi for compounds tested on human CB2 (Homo sapiens (Human), UniProt P34972).
Sequence (P34972 whole entry): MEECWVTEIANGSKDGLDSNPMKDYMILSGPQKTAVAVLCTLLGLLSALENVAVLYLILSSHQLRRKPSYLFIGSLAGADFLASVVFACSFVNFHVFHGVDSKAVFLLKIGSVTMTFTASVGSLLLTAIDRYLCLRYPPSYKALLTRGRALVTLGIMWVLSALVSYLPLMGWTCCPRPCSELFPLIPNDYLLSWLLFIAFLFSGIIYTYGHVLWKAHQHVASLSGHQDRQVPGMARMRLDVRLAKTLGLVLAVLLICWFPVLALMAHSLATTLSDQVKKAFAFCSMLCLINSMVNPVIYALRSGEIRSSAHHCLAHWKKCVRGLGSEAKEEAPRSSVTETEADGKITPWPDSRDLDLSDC
pKi: −log10 of the molar value.

| COMPOUND | pKi |
| --- | --- |
| NC(=O)CC1(NC(=O)c2ccc(N3CC(OCCF)C3)c(OCC3CC3)n2)COC1 [Example 5] | 6.35 |
| CCOC(=O)C(CC)(CC)NC(=O)c1ccc(N2CC(OCCCF)C2)c(OCC2CC2)n1 [Example 1] | 7.72 |
| CCOC(=O)C(CC)(CC)NC(=O)c1ccc(N2CC(OCCF)C2)c(OCC2CC2)n1 [Example 2] | 8.30 |
